System: OVCAR-5 ovarian
Experiment: NCI-60 one-dose screen, 48 h (100 = growth as untreated, 0 = no growth, -100 = all killed)
Details: 10 µM unless noted
This is part of a sample that, as a whole, favours compounds with a hit. Of some 83,000 tested, about 20% had one in any assay.
# growth values compiled below
Report only the number, with the unit % understood.

Here is how some molecules turned out for growth.
CO[C@H]1C[C@@H]2CC[C@@H](C)[C@@](O)(O2)C(=O)C(=O)N2CCCC[C@H]2C(=O)O[C@H]([C@H](C)C[C@@H]2CC[C@@H](OC(=O)C(C)(CO)CO)[C@H](OC)C2)CC(=O)[C@H](C)/C=C(\C)[C@@H](O)[C@@H](OC)C(=O)[C@H](C)C[C@H](C)\C=C/C=C/C=C/1C : 47.1
CN1[C@@H]2CC[C@H]1/C(=C\c1ccccc1)C1=C2[C@@H](c2ccccc2)C(C#N)=C(N)O1 : 84.9
COC(=O)c1[nH]cnc1/N=N/N(C)CCO : 92.9
COc1ccc2c(c1OC)C(=O)O[C@@H]2[C@H]1c2c(c(C#CC#Cc3ccc(F)c(F)c3)c3c(c2OC)OCO3)CCN1C : 96.5

Then this molecule:
The value of growth measured for the molecule CCS(=O)(=O)N1CCN(c2ccc(Nc3ncc(C(N)=O)c(NC4CC4)n3)cc2)CC1 turned out to be 86.7

====

Test system: A498 renal
Assay: NCI-60 one-dose screen, 48 h (100 = growth as untreated, 0 = no growth, -100 = all killed)
Details: 10 µM unless noted
About 83,000 compounds went through this panel and 20% of them were active in at least one assay; those are over-represented in the sample as a whole.
Parameter: growth (%)
Report only the number, with the unit % understood.

Here is how some molecules turned out for growth.
COc1ccc(-c2cc3c(oc2=O)-c2ccccc2OC3OC(C)=O)cc1 (configuration not stated) : 100
CN1CCN(Cc2ccc(NC(=O)c3[nH]ncc3Nc3ncnc4sc5c(c34)CCCC5)cc2)CC1 : -60.5

The value of growth measured for the molecule NC1=Nc2cc(OCCCN3Cc4ccccc4C3)c(OCC3CC3)cc2C12CCCC2 turned out to be 68.4

The value of growth measured for the molecule Oc1ccc(/C=N/Nc2nnc(N/N=C/c3ccc(O)cc3O)c3ccccc23)c(O)c1 turned out to be -61.1

The value of growth measured for the molecule CCn1c(-c2nonc2N)nc2c(C#CC(C)(C)O)ncc(OC[C@H]3CCCNC3)c21 turned out to be 42.3

====

System: SN12C renal
Assay: NCI-60 one-dose screen, 48 h
Settings: 10 µM unless noted
The panel holds about 83,000 compounds, 20% with a hit somewhere; the sample as a whole holds those more often. Active and inactive are the calls of the source. The calls were made as follows: active = growth percent below 10; inactive = the rest.
Output constraint: value belongs to active, inactive

CC[n+]1c(/C=C/C=C2\N(C)c3ccccc3C2(C)C)sc2ccccc21 : active

Challenge: # fetch the recorded call for COc1ccc(Cl)c(Nc2nc3ccccc3nc2NS(=O)(=O)c2cccc(NC(=O)C(C)(C)N)c2)c1 here
Response given: inactive

Challenge: # fetch the recorded call for C=CC(=O)N1CCC[C@@H](n2nc(-c3ccc(Oc4ccccc4)cc3)c3c(N)ncnc32)C1 here
Response given: inactive

Challenge: # fetch the recorded call for COC(=O)[C@]12CC[C@@H](C)[C@H](C)[C@@H]1C1=CC[C@@H]3[C@@]4(C)C(C#N)=CC(C)=C4CC[C@@]3(C)[C@]1(C)CC2 here
Response given: inactive
